# CONDITION CONTEXT: 313.15 K; 101.33 kPa; Liquid; Falling or rolling sphere viscometry
Classification field: enter YES for viscosity values not below 40 mPa·s, NO for values below it.

>>> qualitative_label("CCCCn1cc[n+](C)c1.CCOS(=O)(=O)[O-] [1-butyl-3-methyl-1H-imidazolium ethyl sulfate]")
"YES"
>>> qualitative_label("CCCC[n+]1ccn(C)c1.O=S(=O)([N-]S(=O)(=O)C(F)(F)F)C(F)(F)F")
"NO"
>>> qualitative_label("CCCCn1cc[n+](C)c1.O=S(=O)([O-])C(F)(F)F [1-butyl-3-methylimidazolium trifluoromethanesulfonate]")
"YES"
>>> qualitative_label("CCn1cc[n+](C)c1.O=S(=O)([N-]S(=O)(=O)C(F)(F)F)C(F)(F)F")
"NO"
>>> qualitative_label("CCCCn1cc[n+](C)c1.F[P-](F)(F)(F)(F)F [1-butyl-3-methylimidazolium hexafluorophosphate]")
"YES"
